# experimentalTarget: human recombinant mGluR5 (Homo sapiens)
# Construct: expressed in transfected cells; hygromycin and geneticin selection
# Sequence (P41594 21-1212): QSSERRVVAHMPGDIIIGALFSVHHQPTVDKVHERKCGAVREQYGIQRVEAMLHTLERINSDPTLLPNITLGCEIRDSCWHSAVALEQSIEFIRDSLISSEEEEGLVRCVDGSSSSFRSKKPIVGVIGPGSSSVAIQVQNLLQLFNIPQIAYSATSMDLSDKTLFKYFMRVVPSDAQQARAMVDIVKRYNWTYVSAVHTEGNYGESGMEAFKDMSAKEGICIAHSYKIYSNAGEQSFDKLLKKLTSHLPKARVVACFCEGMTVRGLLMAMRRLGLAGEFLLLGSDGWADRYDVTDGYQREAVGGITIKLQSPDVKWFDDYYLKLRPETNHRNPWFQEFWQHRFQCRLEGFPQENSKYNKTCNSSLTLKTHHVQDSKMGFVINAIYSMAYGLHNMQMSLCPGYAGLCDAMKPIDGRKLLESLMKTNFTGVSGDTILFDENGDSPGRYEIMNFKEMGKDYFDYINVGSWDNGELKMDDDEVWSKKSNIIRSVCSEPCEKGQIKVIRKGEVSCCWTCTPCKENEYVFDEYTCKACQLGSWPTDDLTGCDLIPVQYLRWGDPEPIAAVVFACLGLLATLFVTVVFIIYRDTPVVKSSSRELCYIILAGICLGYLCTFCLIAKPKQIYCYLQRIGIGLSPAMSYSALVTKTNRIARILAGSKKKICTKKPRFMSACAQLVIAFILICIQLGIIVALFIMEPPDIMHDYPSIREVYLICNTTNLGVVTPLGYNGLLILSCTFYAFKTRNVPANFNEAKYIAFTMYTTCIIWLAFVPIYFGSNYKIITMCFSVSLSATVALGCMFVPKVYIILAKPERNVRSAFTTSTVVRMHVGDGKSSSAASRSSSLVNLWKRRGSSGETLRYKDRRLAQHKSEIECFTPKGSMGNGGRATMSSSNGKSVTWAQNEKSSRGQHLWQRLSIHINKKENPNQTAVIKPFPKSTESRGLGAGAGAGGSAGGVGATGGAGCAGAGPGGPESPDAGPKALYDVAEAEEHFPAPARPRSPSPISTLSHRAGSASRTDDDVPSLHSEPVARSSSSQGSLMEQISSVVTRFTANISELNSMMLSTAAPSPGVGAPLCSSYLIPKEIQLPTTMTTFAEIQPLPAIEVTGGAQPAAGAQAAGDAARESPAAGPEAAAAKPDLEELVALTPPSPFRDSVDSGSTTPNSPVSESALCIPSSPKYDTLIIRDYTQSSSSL
# method: positive modulation of mGluR5, calcium based FLIPR assay
# runConditions: HEK 293 cell line expressing human recombinant mGluR5; Ca2+ peak height after glutamate at approximately 5% basal stimulation; nonlinear regression
pEC50: −log10 of the molar value.
Recorded pEC50 values for a group of compounds are listed next.
measurementType: pEC50

compound: CC1CN(C(=O)c2cc3ccccc3o2)CCN1C(=O)c1ncn(-c2cccc(Cl)c2)n1 (centres unmarked) [Example 267]
measurementType: pEC50
measuredValue: 6.25
//
compound: CCCOc1cccc(C(=O)N2CCN(C(=O)c3ncn(-c4cccc(Cl)c4)n3)C(C)C2)c1 (centres unmarked) [Example 285]
measurementType: pEC50
measuredValue: 6.13
//
compound: Cc1oc2ccccc2c1C(=O)N1CCN(C(=O)c2ncn(-c3ccccc3)n2)C(C)(C)C1 [Example 106]
measurementType: pEC50
measuredValue: 7.05
//
compound: COc1cccc(C(=O)N2CCN(C(=O)c3ncn(-c4cccc(C)c4)n3)CC2C)n1 (centres unmarked) [Example 244]
measurementType: pEC50
measuredValue: 6.67
//
compound: CC1(C)CN(C(=O)c2cccc(Cl)c2)CCN1C(=O)c1nnn(-c2cccc(F)c2)n1 [Example 192]
measurementType: pEC50
measuredValue: 6.80
//
compound: CC1CN(C(=O)c2ccc(Cl)s2)CCN1C(=O)c1ncn(-c2cccc(Cl)c2)n1 (centres unmarked) [Example 273]
measurementType: pEC50
measuredValue: 5.88
//
compound: COc1cc(C(=O)N2CCN(C(=O)c3ncn(-c4cccc(F)c4)n3)CC2C)ccc1C (centres unmarked) [Example 233]
measurementType: pEC50
measuredValue: 6.32
//
compound: CC1(C)CN(C(=O)c2cccc(C(F)(F)F)c2)CCN1C(=O)c1ncn(-c2cccc(Cl)c2)n1 [Example 14]
measurementType: pEC50
measuredValue: 7.60
